Reference source for all entries: the supplement of paper PMC13380429

# maps each entry to its cell viability
system: HepG2; test: cell viability relative to DMSO; higher = less toxic; conditions: 72 h; 1000 nM
Answer with a number only, understood to be in %.

CNC(=O)c1c(I)c(NC(C)=O)c(I)c(C(=O)O)c1I [iothalamic-acid-d3] | 94.9
CCCCOc1ccc(C(=O)Nc2ccc(F)cc2F)cc1 | 90.7
Cc1ccc(S(N)(=O)=O)cc1 [para-toluenesulfonamide] | 94.4
CN1C2CCCC1CC(NC(=O)c1nn(C)c3ccccc13)C2 (centres undefined) [granisetron] | 95.1
O=C(O)c1cn(C2CC2)c2cc(N3CCNCC3)c(F)cc2c1=O [ciprofloxacin] | 78.1
COC(=O)N[C@H](C(=O)N1CCC[C@H]1C(=O)Nc1ccc([C@@H]2CC[C@@H](c3ccc(NC(=O)[C@@H]4CCCN4C(=O)[C@@H](NC(=O)OC)C(C)C)cc3)N2c2ccc(C(C)(C)C)cc2)cc1)C(C)C [ombitasvir] | 92.3
CN1C(=O)N(c2ccc(C#N)c(C(F)(F)F)c2)C(=O)[C@]1(CO)c1ccccc1 [GLPG0492-R-enantiomer] | 100
CN(C)Cc1c(C(=O)NCCOc2ccc(C(=O)NO)cc2)oc2ccccc12 | 11.4

The molecule CC(C)(C)/[N+]([O-])=C/c1ccc(S(=O)(=O)O)cc1S(=O)(=O)O [NXY-059] , when measured on HepG2, yielded cell viability of 100

Assay HepG2, sample CC(CCc1ccccc1)NC(C)C(O)c1ccc(O)cc1 (centres undefined) [buphenine] , cell viability read: 89.7
